The reported measurements were obtained from patent US20040224958A1.

Below, each entry is listed alongside its reported IC50.
Molecular target: cdc2/cyclinB (Homo sapiens)
Sequence (P06493 whole entry): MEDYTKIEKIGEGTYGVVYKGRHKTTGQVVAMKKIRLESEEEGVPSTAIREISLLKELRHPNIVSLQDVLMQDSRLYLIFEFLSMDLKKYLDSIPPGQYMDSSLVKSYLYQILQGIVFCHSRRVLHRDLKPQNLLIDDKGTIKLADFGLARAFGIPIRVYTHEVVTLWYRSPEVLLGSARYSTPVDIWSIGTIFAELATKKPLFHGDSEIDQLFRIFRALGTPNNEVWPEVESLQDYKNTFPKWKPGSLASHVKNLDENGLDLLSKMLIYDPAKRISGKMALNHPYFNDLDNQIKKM
Sequence (P14635 whole entry, further chain): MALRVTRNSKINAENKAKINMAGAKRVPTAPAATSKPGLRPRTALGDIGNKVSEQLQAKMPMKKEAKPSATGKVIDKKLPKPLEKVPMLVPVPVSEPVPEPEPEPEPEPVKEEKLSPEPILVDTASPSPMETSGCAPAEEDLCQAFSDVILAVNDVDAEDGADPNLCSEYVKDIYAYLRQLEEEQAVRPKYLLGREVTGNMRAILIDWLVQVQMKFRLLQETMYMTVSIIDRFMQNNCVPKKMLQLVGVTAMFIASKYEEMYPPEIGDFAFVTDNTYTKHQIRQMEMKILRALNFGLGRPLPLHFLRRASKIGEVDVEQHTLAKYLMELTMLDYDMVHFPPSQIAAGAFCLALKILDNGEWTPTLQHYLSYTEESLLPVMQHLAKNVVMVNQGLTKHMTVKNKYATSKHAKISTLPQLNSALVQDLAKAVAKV
Experiment: Cyclin-Dependent Kinase Assay cdc2/cyclinB
The reply should contain only the number, in nM.

Here is how some compounds turned out for IC50.
O=c1ccc2cnc(Nc3ccc(N4CCCCC4)cc3)nc2n1[C@H]1C[C@H]2CC[C@@H]1C2 (relative stereo) :: 440
CCC(CC)n1c(=O)ccc2cnc(Nc3ccc4c(c3)NC(=O)CS4)nc21 :: 51
CCCCn1c(=O)ccc2cnc(Nc3ccc(F)c(C(F)(F)F)c3)nc21 :: 220
O=c1ccc2cnc(Nc3ccc(O)c([N+](=O)[O-])c3)nc2n1C1CCCC1 :: 36
CC(C)n1c(=O)ccc2cnc(Nc3ccc(NC(=O)OC(C)(C)C)cc3)nc21 :: 273

Query: Look up IC50 for this compound: "CCCCn1c(=O)ccc2cnc(Nc3cccc(S(N)(=O)=O)c3)nc21"
Response: 58

Query: Suppose we examine the compound "Cc1cc(Nc2ncc3ccc(=O)n(C4CCCC4)c3n2)cc(C)c1O" ; what IC50 value has been reported?
Response: 82

Query: Fill in the blank: the reported IC50 of "CCN(CC)CCOc1ccc(Nc2ncc3ccc(=O)n(C4CCCCC4)c3n2)cc1" is ____.
Response: 373
